Where do the numbers come from? From patent US20240116985A1.

target: full-length beta-Catenin (Uniprot ID P35222) (Homo sapiens (Human)) (UniProt P35222); test: fluorescence polarization competition; full-length beta-catenin with 5FAM-labeled TCF4 (10-53) probe as competitor
Sequence (P35222 whole entry): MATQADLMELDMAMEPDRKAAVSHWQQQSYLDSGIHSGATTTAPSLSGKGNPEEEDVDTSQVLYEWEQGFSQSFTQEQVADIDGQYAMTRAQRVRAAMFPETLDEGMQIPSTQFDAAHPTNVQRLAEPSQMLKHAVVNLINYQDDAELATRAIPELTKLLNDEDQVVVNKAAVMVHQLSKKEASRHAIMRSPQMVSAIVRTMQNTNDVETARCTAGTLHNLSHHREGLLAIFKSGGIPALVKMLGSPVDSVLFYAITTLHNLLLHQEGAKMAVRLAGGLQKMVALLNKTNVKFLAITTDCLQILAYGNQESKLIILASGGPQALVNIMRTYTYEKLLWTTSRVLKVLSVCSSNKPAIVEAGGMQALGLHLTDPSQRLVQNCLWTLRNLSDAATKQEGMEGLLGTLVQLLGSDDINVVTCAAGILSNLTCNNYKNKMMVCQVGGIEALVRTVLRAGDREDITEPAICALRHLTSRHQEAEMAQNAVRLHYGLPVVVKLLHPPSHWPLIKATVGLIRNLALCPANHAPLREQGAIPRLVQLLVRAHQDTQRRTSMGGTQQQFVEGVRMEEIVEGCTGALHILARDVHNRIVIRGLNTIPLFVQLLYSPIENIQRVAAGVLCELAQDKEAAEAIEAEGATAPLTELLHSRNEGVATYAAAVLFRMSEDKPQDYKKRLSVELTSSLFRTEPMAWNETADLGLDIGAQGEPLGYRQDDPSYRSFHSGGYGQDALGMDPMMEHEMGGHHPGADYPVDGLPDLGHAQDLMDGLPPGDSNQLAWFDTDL
Starred links: 1 amine or outer side, 2 acyl side, 3 side chain; linkers in the order of their positions; H or OH if unused. Positions of bridges follow the written chain, without caps; N, C: chain ends. Non-standard residues stand in square brackets, D forms with d. Primed or numbered codes have the meaning given here. PyrS2″ = (S)-3-amino-1-((pent-4-en-1-yloxy)carbonyl)pyrrolidine-3-carboxylic acid (stapling residue), C=CCCCOC(=O)N1CC[C@@](N[*:1])(C(=O)[*:2])C1; B5(4) = 2,2-bis(4-pentenyl)glycine = 2-amino-2-(pent-4-en-1-yl)hept-6-enoic acid (stitching residue), C=CCCCC(CCCC=C)(N[*:1])C(=O)[*:2]; TfeGA = (S)-2-amino-3-((carboxymethyl)(2,2,2-trifluoroethyl)amino)propanoic acid, O=C([C@H](CN(CC(=O)[*:3])CC(F)(F)F)N[*:1])[*:2]; B5(25) = 2-amino-2-(pent-4-en-1-yl)hept-6-enoic acid (stitching residue), C=CCCCC(CCCC=C)(N[*:1])C(=O)[*:2]; EtGA = (S)-2-amino-3-((carboxymethyl)(ethyl)amino)propanoic acid, CCN(CC(=O)[*:3])C[C@H](N[*:1])C(=O)[*:2]; B5(3) = 2,2-bis(4-pentenyl)glycine (stitching residue), C=CCCCC(CCCC=C)(N[*:1])C(=O)[*:2]; Phe(3-COOH) = N[C@@H](Cc1cccc(C(=O)O)c1)C(=O)O; Phe(2-Cl) = N[C@@H](Cc1ccccc1Cl)C(=O)O; Bta = N[C@@H](Cc1csc2ccccc12)C(=O)O; αAllylPro = C=CC[C@@]1(C(=O)O)CCCN1; tBuAla = CC(C)(C)C[C@H](N)C(=O)O; 3Thi = N[C@@H](Cc1ccsc1)C(=O)O; S8 = C=CCCCCCC[C@](C)(N)C(=O)O; hSer = N[C@@H](CCO)C(=O)O
Please use the following EC50 ranges when assigning a class: lo (below 60 nM), mid (60 nM to below 2000 nM), hi (2000 nM or more)

// known answers, use as guide
binder	answerLabel
Ac-[αAllylPro]D[tBuAla][B5(25)]D[EtGA]AAFT[PyrS2″][3Thi][Bta]Q-NH2 (staple 1-4, 4-11; not fully specified; printed as Ac-PL3-Asp-Npg-B5-Asp-EtGA-Ala-Ala-Phe-Thr-PyrS2-3Thi-BztA-Gln-NH2) [I-969]	hi
Ac-[αAllylPro]D[tBuAla][B5(3)]D[TfeGA]AAFF[PyrS2″][Phe(2-Cl)][Bta]T-NH2 (staple 1-4, 4-11) [I-991]	lo
Ac-[αAllylPro]D[tBuAla][B5(3)]D[Phe(3-COOH)]AAFS[PyrS2″][3Thi][Bta]S-NH2 (staple 1-4, 4-11; also: later eluting HPLC peak (staple isomer)) [I-985]	mid
Ac-[αAllylPro]D[tBuAla][B5(25)]D[EtGA]AAFS[PyrS2″][3Thi][Bta]Q-NH2 (staple 1-4, 4-11; not fully specified; printed as Ac-PL3-Asp-Npg-B5-Asp-EtGA-Ala-Ala-Phe-Ser-PyrS2-3Thi-BztA-Gln-NH2) [I-967]	mid
Ac-[αAllylPro]D[tBuAla][B5(3)]D[TfeGA]AAFF[PyrS2″]F[Bta]Q-NH2 (staple 1-4, 4-11) [I-988]	lo
Ac-[αAllylPro]D[tBuAla][B5(4)]D[Phe(3-COOH)]AAFS[PyrS2″][3Thi][Bta]Q-NH2 (staple 1-4, 4-11; also: earlier eluting HPLC staple isomer) [I-978]	mid
Ac-[αAllylPro]D[tBuAla][B5(3)]D[Phe(3-COOH)]AAFS[PyrS2″][3Thi][Bta]S-NH2 (staple 1-4, 4-11; also: earlier eluting HPLC peak (staple isomer)) [I-984]	mid
Ac-[αAllylPro]D[tBuAla][B5(3)]D[TfeGA]AAF[hSer][S8][Phe(2-Cl)][Bta]Q-NH2 (staple 1-4, 4-11) [I-996]	lo
Ac-[αAllylPro]D[tBuAla][B5(25)]D[EtGA]AAFT[PyrS2″][3Thi][Bta]Q-NH2 (staple 1-4, 4-11; also: earlier-eluting HPLC staple isomer) [I-968]	hi
Ac-[αAllylPro]D[tBuAla][B5(3)]D[TfeGA]AAFF[PyrS2″][Phe(2-Cl)][Bta]S-NH2 (staple 1-4, 4-11) [I-990]	lo

Task: Form field 'band' for Ac-[αAllylPro]D[tBuAla][B5(3)]D[Phe(3-COOH)]AAFF[PyrS2″][3Thi][Bta]S-NH2 (staple 1-4, 4-11; also: later eluting HPLC peak (staple isomer)) [I-983]
Result: mid

Task: Category of Ac-[αAllylPro]D[tBuAla][B5(4)]D[EtGA]AAFS[PyrS2″][3Thi][Bta]S-NH2 (staple 1-4, 4-11; also: later eluting HPLC staple isomer) [I-975] , please.
Result: mid

Task: Given Ac-[αAllylPro]D[tBuAla][B5(4)]D[Phe(3-COOH)]AAFT[PyrS2″][3Thi][Bta]Q-NH2 (staple 1-4, 4-11; also: earlier eluting HPLC staple isomer) [I-980] , name the class its EC50 places it in.
Result: mid
